# Subject Of Test: human B2 bradykinin receptors (CHO-hB2 cell membranes) (Homo sapiens, UniProt P30411)
# Construct: purchased Receptor Biology, Inc. (Baltimore, Md.); host or cells: CHO-hB2 cells (membranes)
# Sequence (P30411 whole entry): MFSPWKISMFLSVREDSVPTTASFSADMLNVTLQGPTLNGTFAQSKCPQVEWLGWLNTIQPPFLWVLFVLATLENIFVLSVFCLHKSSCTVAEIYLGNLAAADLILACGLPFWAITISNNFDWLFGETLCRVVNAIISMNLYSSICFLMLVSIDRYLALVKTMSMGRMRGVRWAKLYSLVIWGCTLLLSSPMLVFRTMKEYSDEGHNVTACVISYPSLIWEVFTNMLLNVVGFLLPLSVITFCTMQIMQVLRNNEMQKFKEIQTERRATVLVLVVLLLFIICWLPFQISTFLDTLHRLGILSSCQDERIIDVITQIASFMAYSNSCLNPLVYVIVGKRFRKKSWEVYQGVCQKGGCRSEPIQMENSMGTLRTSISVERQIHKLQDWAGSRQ
# Assay Comment: [35S]GTPγS Binding Assay in CHO-hB2 Cell Membranes
# Format: biochemical
# Assay Context: bradykinin-stimulated [35S]GTPγS binding
# Description: [^35S]GTPγS Binding Assay in CHO-hB2Cell Membranes CHO-hB2 cell membranes were purchased from Receptor Biology, Inc. (Baltimore, Md.). 10 mg/mL of membrane protein was suspended in 10 mM TRIS-HC pH 7.2, 2 mM EDTA, 10% sucrose. […] The pellet membranes (40 μg/mL) were preincubated with SPA (scintillation proximity assay) beads (20 mg/mL) at 25 C. ° for 45 min in the assay buffer. […] The radioactivity was quantified on a Packard Top Count, and calculated. […]
Property Label: Functional Activity (word result)

mol_smiles=Cc1ccc2cccc(OCc3c(Cl)ccc(N(C)C(=O)Cc4ccc(C(=O)CN5CCC(c6ccccc6)CC5)n4C)c3Cl)c2n1 result="No effect"
mol_smiles=CCCCn1c(CC(=O)N(C)c2ccc(Cl)c(COc3cccc4ccc(C)nc34)c2Cl)ccc1C(=O)c1ccc(C#N)cc1 result="No effect"
mol_smiles=Cc1ccc2cccc(OCc3c(Cl)ccc(N(C)C(=O)Cc4ccc(C(=O)c5ccc(C#N)cc5)n4CC4CC4)c3Cl)c2n1 result="No effect"

Numbers sourced from patent US20040192720A1.
